System: Hs 766
run description: Antiproliferative activity against human Hs 766 cells assessed as reduction in cell viability at 1 to 5 uM after 72 hrs by MTS assay
Assay type: functional, cell-based
experimental context: dose 1-5 µM
Activity calls are given as the source filed them. The rule behind the calls is not given here.
Your reply should match one of these outcome classes. label 1 = active, label 0 = inactive

molecule	category
C#CC1(O)CC[C@H]2[C@@H]3CCc4cc(OC(=O)N(C)C)c(N5CCN(C(=O)[C@@H]6CCCN6C(=O)c6ccc7ccccc7n6)CC5)cc4[C@H]3CC[C@@]21C (single isomer, unassigned)	label 0
C#C[C@]1(O)CC[C@H]2[C@@H]3CCc4cc(OC)c(C(=O)N5CCN(C(=O)[C@@H]6CCCN6C(=O)c6ccc7ccccc7n6)CC5)cc4[C@H]3CC[C@@]21C	label 1
C#CC1(O)CC[C@H]2[C@@H]3CCc4cc(OC(=O)N(CC)CC)c(N5CCN(C(=O)[C@@H]6CCCN6C(=O)c6ccc7ccccc7n6)CC5)cc4[C@H]3CC[C@@]21C (single isomer, unassigned)	label 0
C#CC1(O)CC[C@H]2[C@@H]3CCc4cc(OP(=O)(O)O)c(N5CCN(C(=O)[C@@H]6CCCN6C(=O)c6ccc7ccccc7n6)CC5)cc4[C@H]3CC[C@@]21C (single isomer, unassigned)	label 1
C#CC1(O)CC[C@H]2[C@@H]3CCc4ccc(N5CCN(C(=O)[C@@H]6CCCN6C(=O)c6ccc7ccccc7n6)CC5)cc4[C@H]3CC[C@@]21C (single isomer, unassigned)	label 0

### Prompt Name the outcome recorded for "C#C[C@]1(O)CC[C@H]2[C@@H]3CCc4cc(C(C)=O)c(N5CCN(C(=O)[C@@H]6CCCN6C(=O)c6ccc7ccccc7n6)CC5)cc4[C@H]3CC[C@@]21C" in the assay.
### Response label 0

### Prompt Assay outcome for C#CC1(O)CC[C@H]2[C@@H]3CCc4cc(OS(N)(=O)=O)c(N5CCN(C(=O)[C@@H]6CCCN6C(=O)c6ccc7ccccc7n6)CC5)cc4[C@H]3CC[C@@]21C (single isomer, unassigned) : what was it?
### Response label 1

### Prompt Test call, this molecule: "C#C[C@]1(O)CC[C@H]2[C@@H]3CCc4cc(OC)c(N5CCN(C(=O)[C@@H]6CCCN6C(=O)c6ccc7ccccc7n6)CC5)cc4[C@H]3CC[C@@]21C"
### Response label 1

### Prompt Dear colleague, could you share the recorded outcome for C#CC1(O)CC[C@H]2[C@@H]3CCc4cc(O)c(N5CCN(C(=O)[C@@H]6CCCN6C(=O)c6ccc7ccccc7n6)CC5)cc4[C@H]3CC[C@@]21C (single isomer, unassigned) when you have a moment?
### Response label 1

* * *

Tested on: OVCAR-3
run description: Antiproliferative activity against human OVCAR-3 cells assessed as reduction in cell viability after 72 hrs by MTS assay
Format: functional, cell-based
experimental context: OVCAR-3, 72 h
readout name: pIC50
// scale note: pIC50 = -log10(conc_M); give the bare number

Would you please look over these solved cases?
compound	readout name	obs value
C#CC1(O)CC[C@H]2[C@@H]3CCc4cc(OP(=O)(O)O)c(N5CCN(C(=O)[C@@H]6CCCN6C(=O)c6ccc7ccccc7n6)CC5)cc4[C@H]3CC[C@@]21C (single isomer, unassigned)	pIC50	5.34
C#C[C@]1(O)CC[C@H]2[C@@H]3CCc4cc(OC)c(C(=O)N5CCN(C(=O)[C@@H]6CCCN6C(=O)c6ccc7ccccc7n6)CC5)cc4[C@H]3CC[C@@]21C	pIC50	5.28
C#C[C@]1(O)CC[C@H]2[C@@H]3CCc4cc(OC)c(N5CCN(C(=O)[C@@H]6CCCN6C(=O)c6ccc7ccccc7n6)CC5)cc4[C@H]3CC[C@@]21C	pIC50	5.30
C#CC1(O)CC[C@H]2[C@@H]3CCc4cc(OC(C)=O)c(N5CCN(C(=O)[C@@H]6CCCN6C(=O)c6ccc7ccccc7n6)CC5)cc4[C@H]3CC[C@@]21C (single isomer, unassigned)	pIC50	5.41
C#CC1(O)CC[C@H]2[C@@H]3CCc4cc(O)c(N5CCN(C(=O)[C@@H]6CCCN6C(=O)c6ccc7ccccc7n6)CC5)cc4[C@H]3CC[C@@]21C (single isomer, unassigned)	pIC50	5.36
C#C[C@]1(O)CC[C@H]2[C@@H]3CCc4cc(OC)c(CN5CCN(C(=O)[C@@H]6CCCN6C(=O)c6ccc7ccccc7n6)CC5)cc4[C@H]3CC[C@@]21C	pIC50	5.30

# next compound below
### Prompt # get_value(readout='pIC50', item= C#CC1(O)CC[C@H]2[C@@H]3CCc4cc(OS(N)(=O)=O)c(N5CCN(C(=O)[C@@H]6CCCN6C(=O)c6ccc7ccccc7n6)CC5)cc4[C@H]3CC[C@@]21C (single isomer, unassigned) )
### Response 5.51

* * *

Test system: PC-3
run description: Antiproliferative activity against human PC-3 cells assessed as reduction in cell viability after 72 hrs by MTS assay
Type: functional, cell-based
experimental context: PC-3, 72 h
Recorded measurements of pIC50, one per entry
# pIC50 = -log10(concentration in molar units)

compound	obs value
C#CC1(O)CC[C@H]2[C@@H]3CCc4cc(OS(N)(=O)=O)c(N5CCN(C(=O)[C@@H]6CCCN6C(=O)c6ccc7ccccc7n6)CC5)cc4[C@H]3CC[C@@]21C (single isomer, unassigned)	5.80
C#C[C@]1(O)CC[C@H]2[C@@H]3CCc4cc(OC)c(C(=O)N5CCN(C(=O)[C@@H]6CCCN6C(=O)c6ccc7ccccc7n6)CC5)cc4[C@H]3CC[C@@]21C	5.77

### Prompt Would you mind telling me what pIC50 value was observed for "C#C[C@]1(O)CC[C@H]2[C@@H]3CCc4cc(OC)c(CN5CCN(C(=O)[C@@H]6CCCN6C(=O)c6ccc7ccccc7n6)CC5)cc4[C@H]3CC[C@@]21C" ?
### Response 5.77

* * *

Test system: OVCAR-3
run description: Antiproliferative activity against human OVCAR-3 cells assessed as reduction in cell viability at 1 to 5 uM after 72 hrs by MTS assay
Assay type: functional, cell-based
experimental context: dose 1-5 µM
Activity calls are given as the source filed them. No cut-off for these calls is given here.
readout name: Activity

Sample records with Activity:
compound	target of assay	readout name	obs value
C#C[C@]1(O)CC[C@H]2[C@@H]3CCc4cc(OC)c(C(=O)N5CCN(C(=O)[C@@H]6CCCN6C(=O)c6ccc7ccccc7n6)CC5)cc4[C@H]3CC[C@@]21C	OVCAR-3	Activity	Active
C#CC1(O)CC[C@H]2[C@@H]3CCc4cc(OP(=O)(O)O)c(N5CCN(C(=O)[C@@H]6CCCN6C(=O)c6ccc7ccccc7n6)CC5)cc4[C@H]3CC[C@@]21C (single isomer, unassigned)	OVCAR-3	Activity	Active
C#C[C@]1(O)CC[C@H]2[C@@H]3CCc4cc(OC)c(CN5CCN(C(=O)[C@@H]6CCCN6C(=O)c6ccc7ccccc7n6)CC5)cc4[C@H]3CC[C@@]21C	OVCAR-3	Activity	Active
C#C[C@]1(O)CC[C@H]2[C@@H]3CCc4cc(C(C)=O)c(N5CCN(C(=O)[C@@H]6CCCN6C(=O)c6ccc7ccccc7n6)CC5)cc4[C@H]3CC[C@@]21C	OVCAR-3	Activity	inactive

### Prompt Lookup: Activity / OVCAR-3 / "C#C[C@]1(O)CC[C@H]2[C@@H]3CCc4cc(OC)c(N5CCN(C(=O)[C@@H]6CCCN6C(=O)c6ccc7ccccc7n6)CC5)cc4[C@H]3CC[C@@]21C"
### Response Active

### Prompt // map C#CC1(O)CC[C@H]2[C@@H]3CCc4cc(OC(=O)N(C)C)c(N5CCN(C(=O)[C@@H]6CCCN6C(=O)c6ccc7ccccc7n6)CC5)cc4[C@H]3CC[C@@]21C (single isomer, unassigned) to recorded Activity (system: OVCAR-3)
### Response inactive

### Prompt Can you look up Activity on OVCAR-3 for C#CC1(O)CC[C@H]2[C@@H]3CCc4cc(OS(N)(=O)=O)c(N5CCN(C(=O)[C@@H]6CCCN6C(=O)c6ccc7ccccc7n6)CC5)cc4[C@H]3CC[C@@]21C (single isomer, unassigned) ?
### Response Active

### Prompt Short answer please: Activity, OVCAR-3, entry C#CC1(O)CC[C@H]2[C@@H]3CCc4ccc(N5CCN(C(=O)[C@@H]6CCCN6C(=O)c6ccc7ccccc7n6)CC5)cc4[C@H]3CC[C@@]21C (single isomer, unassigned)
### Response inactive

### Prompt Give the reported Activity for C#CC1(O)CC[C@H]2[C@@H]3CCc4cc(C(C)O)c(N5CCN(C(=O)[C@@H]6CCCN6C(=O)c6ccc7ccccc7n6)CC5)cc4[C@H]3CC[C@@]21C (single isomer, unassigned) (system: OVCAR-3).
### Response inactive

* * *

run description: Stability in human liver s9 fraction assessed as parent compound remaining at 10 uM after 1 hr by LC-MS analysis
Type: ADME, subcellular
experimental context: read-out: Stabilty
# key: entry, value: remaining at 1 h, 10 µM
The figure you give is taken to be in %; do not add the unit.

Recorded remaining at 1 h, 10 µM, per entry:
molecule	remaining at 1 h, 10 µM (%)
C#C[C@]1(O)CC[C@H]2[C@@H]3CCc4cc(C(C)=O)c(N5CCN(C(=O)[C@@H]6CCCN6C(=O)c6ccc7ccccc7n6)CC5)cc4[C@H]3CC[C@@]21C	52
C#CC1(O)CC[C@H]2[C@@H]3CCc4cc(OC(=O)N(C)C)c(N5CCN(C(=O)[C@@H]6CCCN6C(=O)c6ccc7ccccc7n6)CC5)cc4[C@H]3CC[C@@]21C (single isomer, unassigned)	52

Turning now to a further record.
### Prompt Any idea what its remaining at 1 h, 10 µM is? The molecule is C#CC1(O)CC[C@H]2[C@@H]3CCc4cc(OS(N)(=O)=O)c(N5CCN(C(=O)[C@@H]6CCCN6C(=O)c6ccc7ccccc7n6)CC5)cc4[C@H]3CC[C@@]21C (single isomer, unassigned)
### Response 35
